Target: UniProtKB Q16539
Sequence (Q16539 whole entry): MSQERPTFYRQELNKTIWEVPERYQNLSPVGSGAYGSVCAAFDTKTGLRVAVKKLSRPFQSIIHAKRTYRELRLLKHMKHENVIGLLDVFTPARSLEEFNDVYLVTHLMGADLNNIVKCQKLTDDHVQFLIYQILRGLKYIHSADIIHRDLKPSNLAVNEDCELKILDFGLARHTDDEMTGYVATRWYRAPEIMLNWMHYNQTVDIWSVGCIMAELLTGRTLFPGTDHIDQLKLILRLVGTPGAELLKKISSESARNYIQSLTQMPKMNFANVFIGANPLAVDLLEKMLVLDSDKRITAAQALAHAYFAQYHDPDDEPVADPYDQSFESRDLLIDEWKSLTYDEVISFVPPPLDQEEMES
Test: Evaluation of inhibitory ability of p38a mitogen-activated protein kinase (MAPK)
Settings: Serine/Threonine 15 peptide, 1 hour at room temperature, read at 445 nm and 520 nm
Attribute: pIC50
// pIC50 is dimensionless: -log10 of concentration (M)

Cc1ccc(C(=O)NC2CC2)cc1-c1ccc(C(=O)C2CCC2)cc1 [Compound 5] : 7.06
Cc1ccc(C(=O)NC2CC2)cc1-c1ccc(C(=O)C2CC=CC2)cc1 [Compound 9] : 7.33
Cc1ccc(C(=O)NC2CC2)cc1-c1ccc(C(=O)C2CCCCC2)cc1 [Compound 7] : 7.14

Query Cc1ccc(C(=O)NC2CC2)cc1-c1ccc(C(=O)C2CC2)cc1 [Compound 4] yields pIC50 of 7.41

Query Cc1ccc(C(=O)NC2CC2)cc1-c1ccc(C(=O)C2CCCCCC2)cc1 [Compound 8] yields pIC50 of 7.33

Query Cc1ccc(C(=O)NC2CC2)cc1-c1ccc(C(=O)C2CCC(OCCO)C2)cc1 (stereo not drawn) [11 (anti isomer)] yields pIC50 of 7.23

Query Cc1ccc(C(=O)NC2CC2)cc1-c1ccc(C(=O)C2CCC(O)C2)cc1 (stereo not shown) [Compound 10] yields pIC50 of 7.65

Query COCCOC1CCC(C(=O)c2ccc(-c3cc(C(=O)NC4CC4)ccc3C)cc2)C1 (stereo not shown) [Compound 12] yields pIC50 of 7.66

Query Cc1ccc(C(=O)NC2CC2)cc1-c1ccc(C(=O)C(C)O)cc1 (stereo not shown) [Compound 13] yields pIC50 of 7.29

Query COCCC(C)C(=O)c1ccc(-c2cc(C(=O)NC3CC3)ccc2C)cc1 (stereo not shown) [Compound 2] yields pIC50 of 7.66

---

Molecular target: p-p38 MAPK (Mus musculus, UniProt P47811)
Construct: endogenous in cells; host or cells: Raw264.7
Sequence (P47811 whole entry): as the sequence (Q16539 whole entry) above, with L48H, T263A counted along it
Assay: Evaluation of p38 MAPK protein inhibitory ability in cells (p-p38 immunoblot)
Format: cell-based
Conditions: RAW264.7, Raw264.7 cells, 10 μM compound, 24 hours
Attribute: inhibition at 10 µM
Hi! Could you send only the number? It should be in %, unit omitted.

Consider the reported inhibition at 10 µM for these compounds:
Cc1ccc(C(=O)NC2CC2)cc1-c1ccc(C(=O)C2CCC2)cc1 : 80.4
Cc1ccc(C(=O)NC2CC2)cc1-c1ccc(C(=O)C2CC=CC2)cc1 : 81.7

Query Cc1ccc(C(=O)NC2CC2)cc1-c1ccc(C(=O)C2CCC(O)C2)cc1 (stereo not shown) yields inhibition at 10 µM of 44.7

Query COCCN1CCC(C(=O)c2ccc(-c3cc(C(=O)NC4CC4)ccc3C)cc2)C1 (stereo not shown) yields inhibition at 10 µM of 79.2

---

Target: UniProtKB Q16539
Assay: Evaluation of inhibitory ability of p38a mitogen-activated protein kinase (MAPK)
Conditions: Serine/Threonine 15 peptide, 1 hour at room temperature, read at 445 nm and 520 nm
Endpoint label: IC50 (µM)
Hi! Could you send only the number? It should be in µM, unit omitted.

Consider the reported IC50 for these compounds:
Cc1ccc(C(=O)NC2CC2)cc1-c1ccc(C(=O)C(C)(C)O)cc1 : 0.0718
Cc1ccc(C(=O)NC2CC2)cc1-c1ccc(C(=O)C2CCNC2)cc1 (stereo not drawn) : 0.126
Cc1ccc(C(=O)NC2CC2)cc1-c1ccc(C(=O)C2CCCC2)cc1 : 0.128
Cc1ccc(C(=O)NC2CC2)cc1-c1ccc(C(=O)C2CCC(OCCO)C2)cc1 (stereo not drawn) [11 (syn isomer)] : 0.0278
COCCCC(C)C(=O)c1ccc(-c2cc(C(=O)NC3CC3)ccc2C)cc1 (stereo not drawn) : 0.0507

Query COCCN1CCC(C(=O)c2ccc(-c3cc(C(=O)NC4CC4)ccc3C)cc2)C1 (stereo not drawn) yields IC50 of 0.158
